Entry source: patent US20250360069A1

L. crispatus survival values by entry
# System: Lactobacillus crispatus CIP 103604
# assayRemarks: In vitro UV model: bacterial survival upon UV irradiation (96-well, MPN count)
# Format: cell-based
# particulars: sample 20% v/v; UV 50 SED (500 mJ/cm^2 UVA+UVB); after 4 h; compared to untreated and non-irradiated control
State just the number; it will be interpreted in %.

Lab note: measured L. crispatus survival of CCCCC(CC)COC(=O)C(C#N)=C(c1ccccc1)c1ccccc1 (stereo not shown) [Inv. 1, Octocrylene] was 50

Measured L. crispatus survival of CCCCC(CC)COC(=O)c1ccccc1O (stereo not shown) [Ref. 1, Ethylhexyl Salicylate] : 20

The compound listed as CCCCC(CC)COC(=O)c1ccc(Nc2nc(Nc3ccc(C(=O)OCC(CC)CCCC)cc3)nc(Nc3ccc(C(=O)OCC(CC)CCCC)cc3)n2)cc1 (stereo not shown) [Inv. 3, Ethylhexyl Triazone] has a reported L. crispatus survival of 25

Next:
Reported L. crispatus survival for CCCCC(CC)COc1ccc(-c2nc(-c3ccc(OC)cc3)nc(-c3ccc(OCC(CC)CCCC)cc3O)n2)c(O)c1 (stereo not shown) [Ref. 2] was 20

###

# Tested on: Lactobacillus crispatus CIP 103604
# assayRemarks: In vitro UV model: bacterial survival upon UV irradiation (96-well, MPN count)
# Format: cell-based
# particulars: sample 20% v/v; UV 50 SED (500 mJ/cm^2 UVA+UVB); after 4 h
# Description: […]
recordedEndpoint: L. crispatus relative protection by the UV filter(s) vs. vehicle control

Quick note, L. crispatus relative protection by the UV filter(s) vs. vehicle control for CCCCC(CC)COC(=O)c1ccccc1O (stereo not shown) [Ref. 1, Ethylhexyl Salicylate] landed at (+59) %

Consider CCCCC(CC)COc1ccc(-c2nc(-c3ccc(OC)cc3)nc(-c3ccc(OCC(CC)CCCC)cc3O)n2)c(O)c1 (stereo not shown) . Its measured L. crispatus relative protection by the UV filter(s) vs. vehicle control is (+59) %
